Target: human CD33 D140A (human, UniProt P20138 18-364)
Sequence (P20138 18-364 D140A limits assumed): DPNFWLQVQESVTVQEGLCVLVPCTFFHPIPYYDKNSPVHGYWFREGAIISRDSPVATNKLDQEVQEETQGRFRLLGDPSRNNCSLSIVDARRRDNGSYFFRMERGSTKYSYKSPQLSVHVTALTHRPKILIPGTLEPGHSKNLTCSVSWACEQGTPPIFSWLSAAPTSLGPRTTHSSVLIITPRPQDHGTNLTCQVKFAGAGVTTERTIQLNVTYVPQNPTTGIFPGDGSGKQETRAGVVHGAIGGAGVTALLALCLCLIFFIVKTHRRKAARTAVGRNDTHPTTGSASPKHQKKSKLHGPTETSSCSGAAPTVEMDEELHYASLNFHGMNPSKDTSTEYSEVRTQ
Assay: flow cytometry on HEK293-T, alanine scan
PARAMETER_MEASURED: Mean % WT Binding

Illustrative cases are given below, each with its answer.
| BINDER | RESULT |
| --- | --- |
| Refmab #3 (antibody, V domains shown, The alanine scan used IgG or Fab) VH: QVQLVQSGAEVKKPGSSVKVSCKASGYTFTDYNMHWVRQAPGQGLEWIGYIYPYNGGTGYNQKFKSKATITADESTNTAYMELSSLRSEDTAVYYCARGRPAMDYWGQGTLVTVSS VL: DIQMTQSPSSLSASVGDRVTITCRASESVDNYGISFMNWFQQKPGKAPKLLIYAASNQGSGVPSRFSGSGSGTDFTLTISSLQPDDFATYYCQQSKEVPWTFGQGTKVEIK | 119 % WT binding |
| Refmab #4 (antibody, V domains shown, The alanine scan used IgG or Fab) VH: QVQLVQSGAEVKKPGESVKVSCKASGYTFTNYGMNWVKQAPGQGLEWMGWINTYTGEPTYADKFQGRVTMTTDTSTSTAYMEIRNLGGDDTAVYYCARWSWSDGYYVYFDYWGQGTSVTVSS VL: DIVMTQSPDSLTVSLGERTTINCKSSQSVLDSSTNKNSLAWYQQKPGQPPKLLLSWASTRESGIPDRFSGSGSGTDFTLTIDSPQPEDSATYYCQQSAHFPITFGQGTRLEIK | 96.1 % WT binding |

Recorded Mean % WT Binding (binder Refmab #2 (antibody, V domains shown, The alanine scan used IgG or Fab) VH: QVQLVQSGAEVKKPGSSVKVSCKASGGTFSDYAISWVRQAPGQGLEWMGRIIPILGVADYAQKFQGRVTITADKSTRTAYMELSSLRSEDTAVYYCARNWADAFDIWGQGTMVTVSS VL: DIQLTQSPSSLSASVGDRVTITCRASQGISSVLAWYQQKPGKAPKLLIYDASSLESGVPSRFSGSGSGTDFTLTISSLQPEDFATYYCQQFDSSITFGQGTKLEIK ): 109 % WT binding
